Data provenance: PubChem BioAssay

target: Fibroblast growth factor 10 (Homo sapiens); test: FGF10 binders on small-molecule microarrays, primary screen, biochemical, small-molecule microarray, 635 nm fluorescence (AID 1102); details: FGF10 binding, fluorescence 635 nm, higher = more signal
Entries and their measured composite z-score follow.

COMPOUND: CCC(CC)C(O)C1C=CC2C(=O)N(c3ccccc3)C(=O)C2N1Nc1ccc(C#N)cc1 (stereo not given)
composite z-score: 0.783
//
COMPOUND: CC(C)N1C(=O)[C@@]2(c3ccc([N+](=O)[O-])cc3)CC(=O)N(CC34CC5CC(CC(C5)C3)C4)[C@@H]2c2ccc(CO)cc21
composite z-score: -0.51
//
COMPOUND: C=CCOC(=O)[C@@H]1[C@H]2C(=O)O[C@H](c3ccccc3)[C@H](c3ccccc3)N2[C@H](c2ccc(OCCOC(=O)[C@@H]3C[C@@H]4C(=O)N[C@@H](Cc5ccccc5)C(=O)N4[C@@H]3c3cccc(OCCO)c3)cc2)[C@@]12C(=O)Nc1ccc(I)cc12
composite z-score: 1.21
//
COMPOUND: COCCOC(=O)N1C(=O)[C@@]2(c3cc(C#CC4=CCCCC4)ccc31)[C@H](C(=O)NC[C@H](O)c1ccccc1)[C@H]1C(=O)O[C@H](c3ccccc3)[C@H](c3ccccc3)N1[C@@H]2c1ccc(O)cc1
composite z-score: 1.22
//
COMPOUND: COCCOC(=O)N1C(=O)[C@@]2(c3cc(C#CCNC(N)=O)ccc31)[C@H](c1ccc(O)cc1)N1[C@H](c3ccccc3)[C@H](c3ccccc3)OC(=O)[C@H]1[C@@H]2C(=O)Nc1nc2ccccc2s1
composite z-score: 1.14

---

molecular target: Dihydroorotate dehydrogenase (quinone), mitochondrial (Plasmodium falciparum (isolate 3D7)); assay: PfDHODH enzyme inhibitors, primary screen, biochemical, C-terminal His tag, absorbance 600 nm (AID 1175); conditions: DCIP absorbance 600 nm, higher = more signal, called active from +8 up or from −8 down;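 note: recombinant parasite enzyme with a five histidine tag at its C terminus; test concentration not given here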
Entries and their measured composite z-score follow.

COMPOUND: COC(=O)[C@@]1(Cc2ccccc2)[C@H]2c3cc(C(=O)N(C)C)n(Cc4cc(C)n(C)n4)c3C[C@H]2CN1C(=O)c1ccccc1
composite z-score: -0.857
--
COMPOUND: CC(C)C[C@@H]1NC(=O)[C@H]2C[C@@H](C(=O)NCCCCCNC(=O)CS)[C@@H](c3cccc(OCCO)c3)N2C1=O
composite z-score: 0.0225
--
COMPOUND: CCOC(=O)C[C@H]1[C@H](OC(=O)c2ccc(-c3ccccc3)cc2)[C@@H](NC(=O)c2ccc3ccccc3c2)c2cc(OCCCO)ccc2N1C(=O)Cc1ccc(OC)cc1
composite z-score: -0.173
--
COMPOUND: O=C1C[C@]2(c3ccc([N+](=O)[O-])cc3)C(=O)N(CC(F)(F)F)c3cc(CO)ccc3[C@H]2N1CC12CC3CC(CC(C3)C1)C2
composite z-score: -3.73
--
COMPOUND: CCOC(=O)C1=C[C@@H](C(C)C)N(S(=O)(=O)c2ccc(C)cc2)[C@H]1c1ccc(C(C)C)cc1
composite z-score: -1.11
--
COMPOUND: CCOC(=O)C[C@H]1[C@H](OC(=O)c2ccccc2-c2ccccc2)[C@@H](NC(=O)Cc2ccc(OC)cc2)c2cc(OCCCO)ccc2N1C(=O)c1ccccc1
composite z-score: 0.542
--
COMPOUND: O=C(CS)NCCCCCCNC(=O)[C@@H]1C[C@@H]2C(=O)N3CCC[C@H]3C(=O)N2[C@@H]1c1ccc(O)cc1
composite z-score: 0.586
--
COMPOUND: CC(C)N1CC=CC23O[C@@H]4C=CCOC(=O)[C@@H]4[C@H]2C(=O)N(CCO)[C@@H]3C1=O (stereo partly drawn)
composite z-score: -1.12
--
COMPOUND: CCOC(=O)C[C@H]1[C@H](OC(=O)Cc2ccc3c(c2)OCO3)[C@@H](NC(=O)C2CCCCC2)c2cc(OCCCO)ccc2N1C(=O)Cc1ccc(OC)cc1
composite z-score: -0.974
--
COMPOUND: COCCOC(=O)N1C(=O)[C@@]2(c3cc(C#CCC(C(=O)OC)C(=O)OC)ccc31)[C@H](c1ccccc1OCCO)N1[C@H](c3ccccc3)[C@H](c3ccccc3)OC(=O)[C@H]1[C@@H]2C(=O)N1CCc2cc(OC)c(OC)cc2C1
composite z-score: -0.857
--
COMPOUND: COc1cc(C(O)C2C=CC3C(=O)N(c4ccccc4)C(=O)C3N2Nc2ccc(C#N)cc2)cc(OC)c1OC (stereo not drawn)
composite z-score: 0.198
--
COMPOUND: COCCOC(=O)N1C(=O)[C@@]2(c3cc(C#CC4=CCCCC4)ccc31)[C@H](C(=O)N1CCc3cc(OC)c(OC)cc3C1)[C@H]1C(=O)O[C@H](c3ccccc3)[C@H](c3ccccc3)N1[C@@H]2c1ccccc1OCCO
composite z-score: -0.0424
--
COMPOUND: COc1ccc([Si](C)(C)[C@H]2[C@H](CCn3cc([C@H](O)c4ccccc4)nn3)O[C@@]3(C(=O)N(Cc4cccc(N5CCC5=O)c4)c4ccccc43)[C@@H]2C)cc1
composite z-score: -1.21
